# experimental.target: PD-1/PD-L1 protein/protein interaction (recombinant human PD-L1 protein (19-238), recombinant human PD-1 protein (25-167)) (Homo sapiens)
# Construct: Recombinant human PD-L1 protein (19-238) with a His-tag at the C-terminus; PD1-H5257 (PD-1)
# Sequence (Q9NZQ7 19-238): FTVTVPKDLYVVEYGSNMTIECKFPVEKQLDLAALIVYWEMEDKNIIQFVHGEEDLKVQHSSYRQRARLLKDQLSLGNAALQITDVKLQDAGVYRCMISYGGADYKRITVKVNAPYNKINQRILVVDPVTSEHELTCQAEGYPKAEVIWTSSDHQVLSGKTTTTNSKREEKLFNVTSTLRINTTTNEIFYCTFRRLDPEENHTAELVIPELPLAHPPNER
# assay.protocol: PD-1/PD-L1 Homogeneous Time-Resolved Fluorescence (HTRF) Binding Assay
# measurement.context: 25° C., PBS buffer pH 7.4, 40 minutes preincubation with inhibitors
value.kind: IC50

N#Cc1c(NC(=O)c2nc3c(s2)CNCC3)cccc1-c1ccccc1Cl ... ≤ 0.1 µM
Cc1c(NC(=O)c2nc3c(s2)CNCC3)ccnc1-c1ccc2c(c1)OCCO2 ... 0.5 to 10 µM
COc1cccc(-c2cccc(NC(=O)c3nc4c(s3)CNCC4)c2C#N)c1 ... ≤ 0.1 µM
COc1cccc(-c2cccc(NC(=O)c3nc4c(n3C)CCN(CC(=O)O)C4)c2C#N)c1F ... 0.1 to 0.5 µM
COc1cc(F)cc(-c2cccc(NC(=O)c3nc4c(s3)CNCC4)c2C#N)c1 ... ≤ 0.1 µM

IC50 reading for `N#Cc1c(NC(=O)c2nc3c(s2)CNCC3)cccc1-c1c(F)cccc1F` : ≤ 0.1 µM

IC50 reading for `Cc1c(NC(=O)c2nc3c(s2)CNCC3)cccc1-c1ccccc1CC#N` : 0.5 to 10 µM

IC50 reading for `Cc1c(NC(=O)c2nc3c(s2)CN(CCO)CC3)cccc1-c1ccccc1` : ≤ 0.1 µM

IC50 reading for `N#Cc1c(NC(=O)c2nc3c(s2)CNCC3)cccc1-c1ccc2c(c1)OCC2` : ≤ 0.1 µM
